Every entry's value here was drawn from patent US5079241A.

- ASSAY_NOTES: pharmacokinetic behavior in baboons, 20 mg/kg (Tables 4 and 6)
- Format: in vivo
- RUN_CONDITIONS: baboon, plasma, 20 mg/kg, 10 minutes
Give YES when the value for concentration at 10 min is at least 20000 ng/mL. Give NO when it is less.

Take a look at these entries with their results.
# MOLECULE, CATEGORY_LABEL
rows = [
    ("CC(C)(O/N=C(\\C(=O)NC1C(=O)N2C(C(=O)O)=C(COC(=O)c3ccc(NC(=O)[C@@H](N)CCCN)c(O)c3)CSC12)c1csc(N)n1)C(=O)O (stereo partly drawn)", "YES"),
    ("CC(C)(O/N=C(\\C(=O)NC1C(=O)N2C(C(=O)O)=C(COC(=O)c3ccc(NC(=O)CCN)c(O)c3)CSC12)c1csc(N)n1)C(=O)O (stereo not drawn)", "NO"),
    ("CC(C)(O/N=C(\\C(=O)NC1C(=O)N2C(C(=O)O)=C(COC(=O)c3ccc(NC(=O)C(N)CCN)c(O)c3)CSC12)c1csc(N)n1)C(=O)O (stereo not drawn)", "YES"),
    ("CC(C)(O/N=C(\\C(=O)NC1C(=O)N2C(C(=O)O)=C(COC(=O)c3ccc(NC(=O)CN)c(O)c3)CSC12)c1csc(N)n1)C(=O)O (stereo not drawn)", "YES"),
    ("CC(C)(ON=C(C(=O)NC1C(=O)N2C(C(=O)O)=C(COC(=O)c3ccc(NC(=O)CN)cc3)CSC12)c1csc(N)n1)C(=O)O (stereo not drawn) [Product A, reference compound]", "YES"),
]

Now consider a different molecule.
Enquiry: Tell me whether concentration at 10 min is at least 20000 ng/mL here: CC(C)(ON=C(C(=O)NC1C(=O)N2C(C(=O)O)=C(COC(=O)c3ccc(NC(=O)CCN)cc3)CSC12)c1csc(N)n1)C(=O)O (stereo not drawn) [Product B, reference compound]
Return: NO

====

Quick reference for concentration at 5 h among some molecules
- ASSAY_NOTES: pharmacokinetic behavior in baboons, 20 mg/kg (Tables 5 and 7)
- Format: in vivo
- RUN_CONDITIONS: baboon, plasma, 20 mg/kg, 5 hours
Could you give me the number in µg/mL? Just the number is fine.

# MOLECULE, concentration at 5 h / µg/mL
measured = [
    ("CO/N=C(\\C(=O)NC1C(=O)N2C(C(=O)O)=C(COC(=O)c3ccc(NS(=O)(=O)CCN)c(O)c3)CSC12)c1csc(N)n1 (centres unmarked)", 141),
]

Attention now turns to another entry.
Enquiry: Read off the recorded concentration at 5 h for CC(C)(ON=C(C(=O)NC1C(=O)N2C(C(=O)O)=C(COC(=O)c3ccc(NS(=O)(=O)CCN)cc3)CSC12)c1csc(N)n1)C(=O)O (centres unmarked) [C, reference compound]
Return: 62.1

====

- ASSAY_NOTES: pharmacokinetic behavior in baboons, 20 mg/kg (Tables 5 and 7)
- Assay type: in vivo
- RUN_CONDITIONS: baboon, plasma, 20 mg/kg, 6 hours
READOUT_LABEL: concentration at 6 h (µg/mL)
Could you give me the number in µg/mL? Just the number is fine.

# COMPOUND, REPORTED_RESULT
records = [
    ("CC(C)(ON=C(C(=O)NC1C(=O)N2C(C(=O)O)=C(COC(=O)c3ccc(NS(=O)(=O)CCN)cc3)CSC12)c1csc(N)n1)C(=O)O (centres unmarked) [C, reference compound]", 54.4),
]

Enquiry: Read off the recorded concentration at 6 h for CO/N=C(\C(=O)NC1C(=O)N2C(C(=O)O)=C(COC(=O)c3ccc(NS(=O)(=O)CCN)c(O)c3)CSC12)c1csc(N)n1 (centres unmarked)
Return: 120

====

- ASSAY_NOTES: pharmacokinetic behavior in baboons, 20 mg/kg (Tables 4 and 6)
- Type: in vivo
- RUN_CONDITIONS: baboon, plasma, 20 mg/kg, 20 mg/kg (Table 6), read-out: Plasma concentration at 6 h
READOUT_LABEL: concentration at 6 h (µg/mL)
Could you give me the number in µg/mL? Just the number is fine.

Worked examples, 2 molecules total:
# MOLECULE, READOUT_LABEL, UNIT_OF_MEASURE, REPORTED_RESULT
measured = [
    ("CC(C)(O/N=C(\\C(=O)NC1C(=O)N2C(C(=O)O)=C(COC(=O)c3ccc(NC(=O)C(N)CCN)c(O)c3)CSC12)c1csc(N)n1)C(=O)O (stereo not drawn) [SR 44130]", "concentration at 6 h", "µg/mL", 90.4),
    ("CC(C)(O/N=C(\\C(=O)NC1C(=O)N2C(C(=O)O)=C(COC(=O)c3ccc(NC(=O)CCN)c(O)c3)CSC12)c1csc(N)n1)C(=O)O (stereo not drawn) [SR 43904]", "concentration at 6 h", "µg/mL", 34.3),
]

Enquiry: Read off the recorded concentration at 6 h for CC(C)(O/N=C(\C(=O)NC1C(=O)N2C(C(=O)O)=C(COC(=O)c3ccc(NC(=O)CN)c(O)c3)CSC12)c1csc(N)n1)C(=O)O (stereo not drawn) [SR 43753]
Return: 80.9

====

Reported MIC, Providencia 155.
Could you give me the number in µg/mL? Just the number is fine.

Worked examples, 8 compounds total:
# COMPOUND, MIC (µg/mL)
rows = [
    ("CC(C)(O/N=C(\\C(=O)NC1C(=O)N2C(C(=O)O)=C(COC(=O)c3ccc(NC(=O)CCN)c(O)c3)CSC12)c1csc(N)n1)C(=O)O (stereo not drawn)", 1),
    ("CC(C)(O/N=C(\\C(=O)NC1C(=O)N2C(C(=O)O)=C(COC(=O)c3ccc(NC(=O)C(N)CCN)c(O)c3)CSC12)c1csc(N)n1)C(=O)O (stereo not drawn)", 1),
    ("CO/N=C(\\C(=O)NC1C(=O)N2C(C(=O)O)=C(COC(=O)c3ccc(NC(=O)[C@@H](N)CCCN)c(O)c3)CSC12)c1csc(N)n1 (stereo partly drawn)", 1),
    ("CC(C)(O/N=C(\\C(=O)NC1C(=O)N2C(C(=O)O)=C(COC(=O)c3ccc(NC(=O)CN)c(O)c3)CSC12)c1csc(N)n1)C(=O)O (stereo not drawn)", 1),
    ("CO/N=C(\\C(=O)NC1C(=O)N2C(C(=O)O)=C(COC(=O)c3ccc(NC(=O)C(N)CCN)c(O)c3)CSC12)c1csc(N)n1 (stereo not drawn)", 2),
    ("CO/N=C(\\C(=O)NC1C(=O)N2C(C(=O)O)=C(COC(=O)c3ccc(NC(=O)CN)c(O)c3)CSC12)c1csc(N)n1 (stereo not drawn)", 2),
    ("CC(C)(O/N=C(\\C(=O)NC1C(=O)N2C(C(=O)O)=C(COC(=O)c3ccc(NC(=O)[C@@H](N)CCCN)c(O)c3)CSC12)c1csc(N)n1)C(=O)O (stereo partly drawn)", 1),
    ("CO/N=C(\\C(=O)NC1C(=O)N2C(C(=O)O)=C(COC(=O)c3ccc(NS(=O)(=O)CCN)c(O)c3)CSC12)c1csc(N)n1 (stereo not drawn)", 1),
]

Attention now turns to another entry.
Enquiry: Read off the recorded MIC for CO/N=C(\C(=O)NC1C(=O)N2C(C(=O)O)=C(COC(=O)c3ccc(NC(=O)CCN)c(O)c3)CSC12)c1csc(N)n1 (stereo not drawn)
Return: 1

====

- ASSAY_NOTES: pharmacokinetic behavior in baboons, 20 mg/kg (Tables 4 and 6)
- Format: in vivo
- RUN_CONDITIONS: baboon, plasma, 20 mg/kg, 20 mg/kg (Table 6), read-out: Plasma concentration at 6 h
READOUT_LABEL: concentration at 6 h (ng/mL)
Could you give me the number in ng/mL? Just the number is fine.

# MOLECULE, concentration at 6 h, ng/mL
data = [
    ("CC(C)(ON=C(C(=O)NC1C(=O)N2C(C(=O)O)=C(COC(=O)c3ccc(NC(=O)CN)cc3)CSC12)c1csc(N)n1)C(=O)O (stereo not drawn) [Product A, reference compound]", 17300),
    ("CC(C)(ON=C(C(=O)NC1C(=O)N2C(C(=O)O)=C(COC(=O)c3ccc(NC(=O)CCN)cc3)CSC12)c1csc(N)n1)C(=O)O (stereo not drawn) [Product B, reference compound]", 4800),
]

Enquiry: Read off the recorded concentration at 6 h for CC(C)(O/N=C(\C(=O)NC1C(=O)N2C(C(=O)O)=C(COC(=O)c3ccc(NC(=O)[C@@H](N)CCCN)c(O)c3)CSC12)c1csc(N)n1)C(=O)O (stereo partly drawn)
Return: 104000

====

Quick reference for concentration at 48 h among some compounds
- ASSAY_NOTES: pharmacokinetic behavior in baboons, 20 mg/kg (Tables 5 and 7)
- Type: in vivo
- RUN_CONDITIONS: baboon, plasma, 20 mg/kg, 48 hours
Could you give me the number in ng/mL? Just the number is fine.

# COMPOUND, UNIT_OF_MEASURE, concentration at 48 h
data = [
    ("CC(C)(ON=C(C(=O)NC1C(=O)N2C(C(=O)O)=C(COC(=O)c3ccc(NS(=O)(=O)CCN)cc3)CSC12)c1csc(N)n1)C(=O)O (centres unmarked) [C, reference compound]", "ng/mL", 600),
]

Attention now turns to another entry.
Enquiry: Read off the recorded concentration at 48 h for CO/N=C(\C(=O)NC1C(=O)N2C(C(=O)O)=C(COC(=O)c3ccc(NS(=O)(=O)CCN)c(O)c3)CSC12)c1csc(N)n1 (centres unmarked)
Return: 14400
